test-description: qHTS assay to identify small molecule antagonists of the sonic hedgehog signaling (Shh) pathway (AID 1259369); note: nearly all actives have a fitted effect of over 45% in size
stated-conditions: NIH/3T3 Gli1-Luc reporter, Shh antagonist, luminescence 24 h; series mostly up to 92.4 µM
Inconclusive results are not listed. The source made the active and inactive calls. Calls come from the whole dose curve.
Outcomes: T = active, F = inactive

# compound, assigned-label
records = [
    ("Cc1cc(C2CC2)nc(Nc2ccccc2)n1", "F"),
    ("Cc1c([N+](=O)[O-])c(C)c([N+](=O)[O-])c(C(C)(C)C)c1[N+](=O)[O-]", "F"),
    ("C#CCO", "F"),
    ("CC(C)C(Nc1ccc(C(F)(F)F)cc1Cl)C(=O)OC(C#N)c1cccc(Oc2ccccc2)c1 (stereo not drawn)", "T"),
    ("CN", "F"),
    ("CSC(C)(C)/C=N/O", "F"),
    ("CCCCON=O", "F"),
    ("CCN1CCC2(CC1)COc1cc3c(cc12)N(C(=O)c1ccc(-c2ccc(-c4nnc(C)o4)cc2C)cc1)CC3", "T"),
    ("[Cl-].[Cl-].[Sn+2]", "F"),
    ("ClC1(Cl)C2(Cl)C3(Cl)C4(Cl)C(Cl)(Cl)C5(Cl)C3(Cl)C1(Cl)C5(Cl)C24Cl (stereo not drawn)", "F"),
    ("CCC[CH2][Sn]([CH2]CCC)([CH2]CCC)[CH2]CCC", "T"),
    ("COP(=S)(OC)Oc1nc(Cl)c(Cl)cc1Cl", "F"),
    ("CCOC(=O)CCN(SN(C)C(=O)Oc1cccc2c1OC(C)(C)C2)C(C)C", "T"),
]
